# Target Or System: IKZF1 (Homo sapiens, UniProt Q13422+Q96SW2)
# Construct: expressed in transfected cells
# Sequence (Q13422 whole entry): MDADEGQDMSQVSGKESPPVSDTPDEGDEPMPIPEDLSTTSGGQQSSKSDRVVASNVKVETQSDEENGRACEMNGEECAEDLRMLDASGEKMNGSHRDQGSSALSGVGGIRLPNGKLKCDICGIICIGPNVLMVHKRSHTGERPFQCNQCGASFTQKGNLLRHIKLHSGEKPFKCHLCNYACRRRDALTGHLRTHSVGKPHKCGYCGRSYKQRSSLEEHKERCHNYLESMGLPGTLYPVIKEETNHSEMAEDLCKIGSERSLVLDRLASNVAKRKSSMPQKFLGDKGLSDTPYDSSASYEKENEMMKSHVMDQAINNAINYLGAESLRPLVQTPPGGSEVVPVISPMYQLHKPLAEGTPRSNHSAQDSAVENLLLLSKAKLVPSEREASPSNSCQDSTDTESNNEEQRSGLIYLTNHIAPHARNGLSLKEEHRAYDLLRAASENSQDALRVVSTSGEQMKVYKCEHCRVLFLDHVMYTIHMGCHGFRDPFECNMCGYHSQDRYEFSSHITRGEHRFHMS
# Sequence (Q96SW2 whole entry): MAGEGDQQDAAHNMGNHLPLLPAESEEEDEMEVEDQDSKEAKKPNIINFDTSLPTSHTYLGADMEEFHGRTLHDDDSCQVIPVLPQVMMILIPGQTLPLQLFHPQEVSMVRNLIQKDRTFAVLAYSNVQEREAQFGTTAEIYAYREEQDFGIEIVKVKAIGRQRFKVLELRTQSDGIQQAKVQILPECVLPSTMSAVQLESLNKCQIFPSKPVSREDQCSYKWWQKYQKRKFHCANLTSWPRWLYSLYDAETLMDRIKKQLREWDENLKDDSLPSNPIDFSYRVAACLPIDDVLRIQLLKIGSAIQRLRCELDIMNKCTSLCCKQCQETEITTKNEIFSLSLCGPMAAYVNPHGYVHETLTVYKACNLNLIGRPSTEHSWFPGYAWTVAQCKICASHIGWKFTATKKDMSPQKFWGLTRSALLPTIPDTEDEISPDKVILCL
# Sequence (Q16531 whole entry partner): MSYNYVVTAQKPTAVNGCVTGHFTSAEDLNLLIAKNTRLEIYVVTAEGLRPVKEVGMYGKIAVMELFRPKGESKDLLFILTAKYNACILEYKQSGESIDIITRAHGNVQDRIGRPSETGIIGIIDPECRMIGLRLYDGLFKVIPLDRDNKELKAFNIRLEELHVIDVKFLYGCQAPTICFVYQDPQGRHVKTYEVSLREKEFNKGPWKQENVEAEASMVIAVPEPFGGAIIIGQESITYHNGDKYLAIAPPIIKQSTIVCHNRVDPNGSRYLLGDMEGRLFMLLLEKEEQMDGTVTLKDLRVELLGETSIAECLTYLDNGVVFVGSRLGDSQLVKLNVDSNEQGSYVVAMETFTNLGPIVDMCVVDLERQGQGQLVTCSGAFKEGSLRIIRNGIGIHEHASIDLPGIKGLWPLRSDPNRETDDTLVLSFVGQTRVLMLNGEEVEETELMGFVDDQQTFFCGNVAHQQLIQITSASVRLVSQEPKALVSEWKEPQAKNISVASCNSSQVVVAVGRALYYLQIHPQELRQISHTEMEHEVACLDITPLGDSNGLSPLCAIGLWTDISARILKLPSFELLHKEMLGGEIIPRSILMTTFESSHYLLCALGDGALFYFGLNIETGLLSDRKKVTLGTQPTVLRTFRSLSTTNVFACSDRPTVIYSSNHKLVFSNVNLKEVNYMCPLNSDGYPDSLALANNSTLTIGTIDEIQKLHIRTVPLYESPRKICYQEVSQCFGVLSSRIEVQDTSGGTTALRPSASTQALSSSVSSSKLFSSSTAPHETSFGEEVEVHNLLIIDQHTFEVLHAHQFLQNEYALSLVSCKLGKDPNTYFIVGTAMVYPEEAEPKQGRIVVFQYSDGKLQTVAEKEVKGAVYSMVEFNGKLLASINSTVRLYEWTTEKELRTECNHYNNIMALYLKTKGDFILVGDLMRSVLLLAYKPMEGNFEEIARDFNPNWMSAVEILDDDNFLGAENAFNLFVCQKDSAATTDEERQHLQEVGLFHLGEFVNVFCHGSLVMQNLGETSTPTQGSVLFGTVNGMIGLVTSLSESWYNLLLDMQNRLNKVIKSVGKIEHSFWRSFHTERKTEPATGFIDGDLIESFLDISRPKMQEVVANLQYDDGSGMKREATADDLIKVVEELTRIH
# Method Notes: HiBiT protein tagging assay, in vitro IKZF1 degradation (HEK293)
# Format: cell-based
# Measurement Setup: HEK293, 18-24 hr incubation, normalized to DMSO control, read-out: IKZF1 Dmax (maximum degradation at the highest concentration tested)
Recorded Metric: Dmax (%)

Example results:
CO[C@@H]1CCCC[C@@H]1NCc1ccc2c(c1)CN(C1CCC(=O)NC1=O)C2=O (stereo partly shown) [Example 108]    89
O=C1CCC(N2Cc3cc(CN[C@H]4CCOc5ccccc54)ccc3C2=O)C(=O)N1 (stereo partly shown) [Example 17]    65
O=C1CCC(N2Cc3cc(CN[C@@H]4CCCC[C@H]4CO)ccc3C2=O)C(=O)N1 (stereo partly shown) [Example 73]    34

A. O=C1CCC(N2Cc3cc(CN[C@@H]4CCCN(C(=O)c5ccccc5)C4)ccc3C2=O)C(=O)N1 (stereo partly shown) [Example 24]
B. O=C1CCC(N2Cc3cc(CNC4CCOCC4)ccc3C2=O)C(=O)N1 (stereo not shown) [Example 6]
C. O=C1CCC(N2Cc3cc(CNC4CCCC(CO)C4)ccc3C2=O)C(=O)N1 (stereo not shown) [Example 97]
D. C[C@@H]1CCCC[C@H]1NCc1ccc2c(c1)CN(C1CCC(=O)NC1=O)C2=O (stereo partly shown) [Example 101]
input: Ascending by Dmax, please: list the molecules accordingly. Please respond with the labels ordered as the question requires.
output: D, A, C, B
(D: 23%, A: 36%, C: 64%, B: 92%)

I. O=C1CCC(N2Cc3cc(CN[C@@H]4CCC[C@H](OCc5ccccc5)C4)ccc3C2=O)C(=O)N1 (stereo partly shown) [Example 112]
II. CC1(C)C[C@]2(CC[C@H](NCc3ccc4c(c3)CN(C3CCC(=O)NC3=O)C4=O)CC2)CO1 (stereo partly shown) [Example 117]
input: Dear colleague, could you let me know whether I or II has the lower recorded Dmax? Thanks. Use the label to indicate which entry you chose.
output: II
(II: 49%, I: 95%)

P. O=C1CCC(N2Cc3cc(CN[C@@H]4CCC[C@H]([C@@H](O)c5ccccc5)C4)ccc3C2=O)C(=O)N1 (stereo partly shown) [Example 135]
Q. O=C1CCC(N2Cc3cc(CN[C@@H]4CCCC[C@H]4OCc4ccccc4Cl)ccc3C2=O)C(=O)N1 (stereo partly shown) [Example 145]
input: Dear colleague, could you let me know whether P or Q has the lower recorded Dmax? Thanks. Use the label to indicate which entry you chose.
output: Q
